Target: recombinant human PDGF-BB (human, UniProt P01127 82-190)
Sequence (P01127 82-190 limits assumed): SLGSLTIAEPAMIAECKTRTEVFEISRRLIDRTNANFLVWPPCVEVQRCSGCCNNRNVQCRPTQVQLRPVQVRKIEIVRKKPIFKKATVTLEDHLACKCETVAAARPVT
Assay: cell-based or functional assay
measured.parameter: huPDGF-BB Neutralization Potency (nM) in NIH-3T3 Cells

| binder | comparison.operator | reported |
| --- | --- | --- |
| BDI-5G2-F9 (antibody, IgG2b, V domains shown, Rat hybridoma monoclonal antibody) VH: QVTLKESGPGILQPSQTLSLTCTFSGFSLSTFGMGVGWIRQPSGKGLEWLANIWWDDDKYYNPSLKNRLTISKDTSNSQAFLEITNVDTADTATYYCARISTGISSYYVMDAWGQGASVTVSS VL: QFTLTQPKSVSGSLRSTITIPCERSSGDIGDTYVSWYQQHLGRPPINVIYGNDQRPSEVSDRFSGSIDSSSNSASLTITNLQMDDEADYFCQSYDSDIDIVFGGGTKLTVL | = | 0.741 |
| BDI-5H1-F6 (antibody, IgG2b, V domains shown, Rat hybridoma monoclonal antibody) VH: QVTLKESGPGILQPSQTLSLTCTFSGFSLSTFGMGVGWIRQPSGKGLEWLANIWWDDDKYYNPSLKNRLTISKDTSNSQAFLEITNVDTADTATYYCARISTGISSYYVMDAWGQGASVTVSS VL: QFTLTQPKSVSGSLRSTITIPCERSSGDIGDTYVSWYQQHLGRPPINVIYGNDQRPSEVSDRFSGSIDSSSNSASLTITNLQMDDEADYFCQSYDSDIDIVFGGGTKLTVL | = | 0.371 |
| BDI-1E1-D5 (antibody, IgG2b, V domains shown, Rat hybridoma monoclonal antibody) VH: EVKLQQSGDELVRPGASVKMSCKASGYTFTDYVMHWVKQSPGQGLEWIGTIIPLIDTTSYNQKFKGKATLTADKSSNTAYMELSRLTSEDSAVYYCARTSPYYYSSYDVMDAWGQGASVTVSS VL: NIQLTQSPSLLSASVGDRVTLSCKGSQNINNYLAWYQQKLGEAPKLLIYKTNNLQTGIPSRFSGCGSGTDYTLTISSLHSEDLATYYCYQYDNGYTFGAGTKLELK | > | 5 |
| BDI-6A3-A9 (antibody, IgG2b, V domains shown, Rat hybridoma monoclonal antibody) VH: EVQLVESGGGLVQPGRSLKFSCAASGFSFSDSAMAWVRQAPKKGLEWVATIIYDGSGTYYRDSVKGRFTISRDNAKSTLYLQMDSLRSEDTATYYCARLGFNYGNYGYYVMDAWGQGASVTVSS VL: QFTLTQPKSVSGSLRNTITIPCERSSGDIGDSYVSWYQQHLGRPPINVIFADDQRPSEVSDRFSGSIDSSSNSASLTITNLQMDDEADYFCQSYDSNIDINIVFGGGTKLTVL | > | 5 |
| BDI-9E8-E7 (antibody, IgG2b, V domains shown, Rat hybridoma monoclonal antibody) VH: QVTLKESGPGILQPSQTLSLTCTFSGFSLSTYGMGVGWIRQPSGKGLEWLANIWWDDDKYYNPSLKNRLTISKDTSNNQAFLKITNVDTADTATYYCARIESIGTTYSFDYWGQGVMVTVSS VL: QFTLTQPKSVSGSLRSTITIPCERSSGDIGDSYVSWYQQHLGRPPINVIYADDQRPSEVSDRFSGSIDSSSNSASLTITNLQMDDEADYFCQSYDINIDIVFGGGTKLTVL | = | 0.195 |
